# Test system: F1*sub RNA substrate (template-directed ligation)
# assay_name: fraction ligated after 30 min (ligated reads / total reads); higher = more ligase activity; sequences stand for … in GAGACCGCAACTGAAAAGTTGT…AGTTCTGCACGTAGAAGCAAAAGGC
# condition_label: 42 °C
Label rule, in plain words: fraction ligated of 0.1 and up is met, under 0.1 is not met.

Completed entries (count: 3):
TACACTTGTCTAAGAACTTTGGATGGGTTGA [3d636] : met
TATCACGTGTAAGACACTTTGGATGGGTTGA [3d1295] : met
TATCATTGTCTAAACACTTTGGATGGGTTGA [3d1189] : met

Record TACACTGCGTAAGACACTTTGGATGGGTTGA [3d568] ; criterion: fraction ligated no lower than 0.1. Met?
met

State whether the measured fraction ligated reaches 0.1, counting equality as reaching it, for TATACTGTCGTAAGACACTTTGGAGGGTTGA [3d792]
not met

Is fraction ligated for TATACTTGTCGTAAACACTTTGGATGGGTTG [3d892] at or above 0.1?
not met
